B1: library; numbered along this chain (parent)
chain: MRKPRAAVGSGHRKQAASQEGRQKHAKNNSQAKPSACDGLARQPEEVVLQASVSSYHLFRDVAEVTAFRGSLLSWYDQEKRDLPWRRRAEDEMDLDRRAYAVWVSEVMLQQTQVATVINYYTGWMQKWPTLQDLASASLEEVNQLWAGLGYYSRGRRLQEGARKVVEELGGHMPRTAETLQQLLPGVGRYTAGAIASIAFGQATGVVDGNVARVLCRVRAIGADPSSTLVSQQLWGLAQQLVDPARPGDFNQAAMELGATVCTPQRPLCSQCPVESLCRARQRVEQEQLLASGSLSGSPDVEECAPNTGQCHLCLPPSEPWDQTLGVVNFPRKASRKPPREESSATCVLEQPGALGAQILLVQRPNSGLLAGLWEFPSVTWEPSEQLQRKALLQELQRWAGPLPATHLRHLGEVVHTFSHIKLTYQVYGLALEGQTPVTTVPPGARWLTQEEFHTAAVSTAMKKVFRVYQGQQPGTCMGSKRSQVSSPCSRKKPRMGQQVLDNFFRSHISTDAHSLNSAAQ

variants of: B1; assay: 8OG:A repair function score (normalized; synonymous = 0, nonsense = -1) (normalized log-likelihood score); higher = more repair activity (WT-like); settings: with 8OG:A DNA repair reporter (GFP) in HEK-293 MUTYH KO cells;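 also: cells sorted at 72 h after reporter transfection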
Output satisfied for 8OG:A repair function score not less than -0.1; output not satisfied otherwise.

1) A457G	not satisfied
2) K422T	not satisfied
3) A36K	not satisfied
4) V261K	not satisfied
5) E160N	satisfied
6) R213I	not satisfied
7) V415W	satisfied
8) T436S	not satisfied
9) C314A	not satisfied
10) L109D	not satisfied
11) W85F	not satisfied
12) V379A	satisfied
13) V214D	not satisfied
14) R2W	satisfied
15) A405M	not satisfied
16) C477F	satisfied
17) A345D	not satisfied
